TARGET_OR_SYSTEM: FmlHLD (Escherichia coli, UniProt P77588)
Construct: 6xHis (C); made in house; host or cells: E. coli C600, periplasm, pTRC99a
Sequence (P77588 25-182): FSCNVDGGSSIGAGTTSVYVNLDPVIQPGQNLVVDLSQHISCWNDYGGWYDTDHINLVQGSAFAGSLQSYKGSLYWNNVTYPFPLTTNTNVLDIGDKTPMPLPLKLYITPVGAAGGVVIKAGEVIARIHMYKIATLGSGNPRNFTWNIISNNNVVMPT
METHOD_NOTES: biochemical
Format: binding, E. coli
EXPERIMENTAL_SETUP: read-out: % Inhibition at [μM] [100], compound at 100 μM; inhibition of FmlHLD binding to ds-BSM
# inhibition at 100 µM >= 50% gives Yes, anything below gives No

MOLECULE	TARGET_OR_SYSTEM	ASSIGNED_LABEL
COC(=O)c1cccc(-c2ccccc2O[C@H]2O[C@H](CO)[C@H](O)[C@H](O)[C@H]2O)c1 [Compound 116e]	FmlHLD (Escherichia coli, UniProt P77588)	No
Cc1c(C)c2ccc(O[C@@H]3O[C@H](CO)[C@H](O)[C@H](O)[C@H]3O)cc2oc1=O [Compound D715-0293, reference compound]	FmlHLD (Escherichia coli, UniProt P77588)	Yes
CC(=O)N[C@@H]1[C@@H](O[C@@H]2O[C@H](CO)[C@H](O)[C@H](O)[C@H]2O)[C@@H](O)[C@@H](CO)O[C@@H]1O [TF, Gal-β1-3-GalNAc-α, reference compound]	FmlHLD (Escherichia coli, UniProt P77588)	No
OC[C@H]1O[C@@H](Oc2c[nH]c3cc(Cl)ccc23)[C@H](O)[C@@H](O)[C@H]1O [Salmon Gal, reference compound]	FmlHLD (Escherichia coli, UniProt P77588)	No
OC[C@H]1O[C@H](Oc2cccc(-c3ccccc3)c2)[C@H](O)[C@@H](O)[C@H]1O	FmlHLD (Escherichia coli, UniProt P77588)	No
OC[C@H]1O[C@@H](Oc2ccccc2Cl)[C@H](O)[C@@H](O)[C@H]1O [Compound 154c]	FmlHLD (Escherichia coli, UniProt P77588)	Yes
